Molecular target: T1, human GLP-1 receptor (human, UniProt P43220 24-463)
T1 construct: whole, on cells; Used as purified membranes of the transfected hamster cells, not whole cells; also called hGLP-1
Assay: SPA, displacement of 125I-GLP-1(7-36)NH2, 0.005% HSA
*1 amine or outer side, *2 acyl side, *3 side chain or, on linkers, in order; H or OH if unused. Where no end group is shown, it is not given here. Side-chain parts run from the residue outwards. [ ]: non-standard residue; d: D form. γGlu = O=C(O)[C@H](CCC(=O)[*:2])N[*:1]; 13‑carboxytridecanoyl = C14 diacid; AEEA = NCCOCCOCC(=O)O; Aib = CC(C)(N)C(=O)O
property-name: IC50

H[Aib]EGTFTSDVSK([AEEA-AEEA-γGlu-4‑(4-nitrophenyl)butanoyl])YLEEQAAK([AEEA-AEEA-γGlu-4‑(4-nitrophenyl)butanoyl])EFIAWLVQGRG [GLP-1 derivative of Example 122: [Aib8,Lys18,Glu22,Gln34]-GLP-1-(7-37)-peptide] :: < 1 µM

Now take the following binder into account.
Ask: Given the entry HAEGTFTSDVSK([γGlu-AEEA-AEEA-13‑carboxytridecanoyl])YLEEQAVREFIAK([γGlu-AEEA-AEEA-13‑carboxytridecanoyl])LVRGRG [GLP-1 derivative of Example 55: [Lys18,Glu22,Val25,Arg26,Lys31,Arg34]-GLP-1-(7-37)-peptide] , report its measured IC50.
Result: < 1 µM
